biological target: catalytic domain of human Bub1 (amino acids 704-1085) (Homo sapiens, UniProt O43683); construct: catalytic domain of human Bub1 (amino acids 704-1085); His6 (N); made in house; host or cells: Hi5 insect cells; test: Bub1 kinase assay (TR-FRET); type: biochemical; conditions: 10 μM ATP, 1 μM peptide substrate; read-out: Biological Assay 1: Bub1 kinase assay median IC50
Sequence (O43683 704-1085): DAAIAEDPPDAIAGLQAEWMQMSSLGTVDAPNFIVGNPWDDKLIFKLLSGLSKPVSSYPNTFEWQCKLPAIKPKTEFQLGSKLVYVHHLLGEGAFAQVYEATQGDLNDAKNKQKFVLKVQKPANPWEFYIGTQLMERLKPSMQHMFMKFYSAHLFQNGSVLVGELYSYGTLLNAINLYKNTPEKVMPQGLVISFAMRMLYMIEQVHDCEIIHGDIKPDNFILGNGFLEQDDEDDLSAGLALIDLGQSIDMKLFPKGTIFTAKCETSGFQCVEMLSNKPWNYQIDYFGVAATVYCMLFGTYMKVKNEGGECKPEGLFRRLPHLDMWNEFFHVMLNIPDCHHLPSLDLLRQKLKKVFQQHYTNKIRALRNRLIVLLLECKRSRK
pIC50: −log10 of the molar value.
METRIC: pIC50

// worked examples, pIC50 included
> print(dat)
                      smiles.representation                           measured.target  value.measured
1  CCOc1cc(F)c(Cn2nc(-c3ncc(OCCCN4CCN(C)CC4)c(Nc4cc(C)ncc4C)n3)c3ccccc32)c(F)c1  catalytic domain of human Bub1 (amino acids 704-1085) (Homo sapiens, UniProt O43683)            6.60
2  CCOc1cc(F)c(Cn2nc(-c3ncc(OCCCN4CCN(C)CC4)c(Nc4ccnc(NC(C)=O)c4)n3)c3ccccc32)c(F)c1  catalytic domain of human Bub1 (amino acids 704-1085) (Homo sapiens, UniProt O43683)            8.34
3  Fc1cc(OCC(F)F)cc(F)c1Cn1nc(-c2ncc(OCCCN3CCOCC3)c(Nc3ccncn3)n2)c2ccccc21  catalytic domain of human Bub1 (amino acids 704-1085) (Homo sapiens, UniProt O43683)            7.72
4  CCOc1cc(F)c(Cn2nc(-c3ncc(OCCCN4CCOCC4)c(Nc4ccnc(NC(C)=O)c4)n3)c3ccccc32)c(F)c1  catalytic domain of human Bub1 (amino acids 704-1085) (Homo sapiens, UniProt O43683)            8.17

(a) CN1CCN(CCCOc2cnc(-c3nn(Cc4c(F)cc(OCC5CC5)cc4F)c4ccccc34)nc2Nc2ccncc2Cl)CC1
(b) CCOc1cc(F)c(Cn2nc(-c3ncc(OCCCN4CCN(C)CC4)c(Nc4ccnc(C)c4)n3)c3ccccc32)c(F)c1
Input line: Hi, I'm comparing two records. Which one has the lower pIC50, a or b ? # answer = label of selected item
Output line: b

====

tested on: HeLa human cervical tumor cells; assay: Proliferation Assay (HeLa+Paclitaxel); details: read-out: Biological Assay 3.0: Proliferation Assay (HeLa + Paclitaxel):, 3 nM paclitaxel, 92 hours with test substance
pIC50: −log10 of the molar value.
METRIC: pIC50

(A) Fc1cc(OCC2CC2)cc(F)c1Cn1nc(-c2ncc(OCCCN3CCOCC3)c(Nc3ccncc3Cl)n2)c2ccccc21 [Example 2-1-2]
(B) CCOc1cc(F)c(Cn2nc(-c3ncc(OCCCCN4CC(F)(F)C4)c(Nc4ccnc(C)n4)n3)c3ccccc32)c(F)c1 [Example 2-3-2]
Input line: Hi, I'm comparing two records. Which one has the lower pIC50, A or B ? # answer = label of selected item
Output line: A
(A: 6.12, B: 7.59)

====

test system: HeLa human cervical cancer cell line; assay: Proliferation assay (HeLa cell line); conditions: read-out: Biological Assay 2: Proliferation assay (HeLa cell line) median IC50, 4 days incubation, crystal violet
pIC50: −log10 of the molar value.
METRIC: pIC50

Input line: What value of pIC50 has been recorded for this entry: CCOc1cc(F)c(Cn2nc(-c3ncc(OCCN4CCOCC4)c(Nc4ccncc4)n3)c3ccccc32)c(F)c1 [Example 3-1-1, reference compound]
Output line: < 5.00
